Numbers sourced from the supplement of paper PMC8975748.

Tested on: Saccharomyces cerevisiae BY4741 SeMeCo community
experiment-summary: z-score of subpopulation abundance vs DMSO median, subpopulation auxotrophic for H; higher = larger share of this subpopulation than in DMSO controls
applied-conditions: 10 µM; 24 h; SM minimal medium; subpopulation (auxotrophy): H
Structures can show the parent of a compound that is named as a salt.
Recorded measurements of z-score of subpopulation abundance, one per entry
Answer as a number with no unit attached.

compound	tested-system	readout-number
CN(C)CCC=C1c2ccccc2C(C)(C)c2ccccc21 [Melitracen hydrochloride]	Saccharomyces cerevisiae BY4741 SeMeCo community	-1.7
Cn1c(=O)c2[nH]cnc2n(C)c1=O [Aminophylline]	Saccharomyces cerevisiae BY4741 SeMeCo community	-0.41
Nc1ccc(S(=O)(=O)Nc2ncccn2)cc1 [Sulfadiazine]	Saccharomyces cerevisiae BY4741 SeMeCo community	-0.65
CCN1CCC[C@H]1CNC(=O)c1cc(S(N)(=O)=O)ccc1OC [Levosulpiride]	Saccharomyces cerevisiae BY4741 SeMeCo community	-0.73
Nc1ccc(S(=O)(=O)Nc2ccccn2)cc1 [Sulfapyridine]	Saccharomyces cerevisiae BY4741 SeMeCo community	-0.9

input: Could you share which z-score of subpopulation abundance value was measured for CN(Cc1cnc2nc(N)nc(N)c2n1)c1ccc(C(=O)N[C@@H](CCC(=O)O)C(=O)O)cc1 [Methotrexate] ?
output: 8.39

input: Could you share which z-score of subpopulation abundance value was measured for C[n+]1ccccc1/C=N/O [Pralidoxime chloride] ?
output: -1.61
